Tested on: UACC-257 melanoma
EXPERIMENTAL_PROTOCOL: NCI tumour cell line growth inhibition, 48 h; in the data active = GI50 below about 0.43 µM; inactive = the rest
Classes used: active, inactive

• Cn1c(NCC(CN2CCCC2)OC(=O)c2ccccc2)cc(=O)n(C)c1=O (centres undefined) = inactive
• FC(F)(F)c1cc(-c2ncn(/C=C\c3nnco3)n2)cc(C(F)(F)F)c1 = active
• COc1cc(/C=C/C(=O)c2ccc(F)cc2)ccc1OCCCCCOc1cc2c(cc1OC)C(=O)N1CCCC1C=N2 (centres undefined) = active
• COc1cc2c3c(n(CCCN4CCCNCC4)c(=O)c2cc1OC)-c1cc2c(cc1C3=O)OCO2 = inactive
• O=C(Cc1ccc(Nc2ccnc(C(F)(F)F)c2)cc1)N/N=C/c1ccccc1O = inactive
• CCOc1cc(/C=C/C(=O)C(C(=O)/C=C/c2ccc(OC(=O)CNc3nnc(C)s3)c(OCC)c2)C(=O)CNc2nnc(C)s2)ccc1OC(=O)CNc1nnc(C)s1 = inactive
• CN(CSc1ccc(Cl)cc1)c1ccc(CSc2ccc(Cl)cc2)cc1 = inactive
• COc1ccc(/C=C/C(=O)c2ccc(Nc3nc(Nc4ccc(F)cc4)nc(Nc4ccc(Cl)cc4)n3)cc2)cc1 = inactive
• O=c1[nH]c(F)nc2c1ncn2C1OC(CO)C(O)C1O (centres undefined) = inactive
